System: 327498-153-R-J2-PDC multicell spheroid viability;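 further: spheroids exposed to agents for 7 days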
Test: Anticancer human tumor 327498-153-R-J2-PDC patient-derived uterine carcinosarcoma cell line growth inhibition [IpAb]; active means viability on the fitted dose curve at most 10% of control; inactive means the rest
Conditions: second compound 10 µM; first compound 10 µM
Classes used: active, inactive

[
  {
    "MOLECULE": "Cc1nc(NC(=O)N2CCCC2C(N)=O)sc1-c1ccnc(C(C)(C)C(F)(F)F)c1 (configuration not stated) + CC(C)NCC(C(=O)N1CCN(c2ncnc3c2C(C)CC3O)CC1)c1ccc(Cl)cc1",
    "QUALITATIVE LABEL": "inactive"
  },
  {
    "MOLECULE": "CCCS(=O)(=O)Nc1ccc(F)c(C(=O)c2c[nH]c3ncc(-c4ccc(Cl)cc4)cc23)c1F + CC(C)NCC(C(=O)N1CCN(c2ncnc3c2C(C)CC3O)CC1)c1ccc(Cl)cc1",
    "QUALITATIVE LABEL": "inactive"
  },
  {
    "MOLECULE": "C=CCn1c(=O)c2cnc(Nc3ccc(N4CCN(C)CC4)cc3)nc2n1-c1cccc(C(C)(C)O)n1 + CC(C)NCC(C(=O)N1CCN(c2ncnc3c2C(C)CC3O)CC1)c1ccc(Cl)cc1",
    "QUALITATIVE LABEL": "active"
  },
  {
    "MOLECULE": "CC1(C)CCC(CN2CCN(c3ccc(C(=O)NS(=O)(=O)c4ccc(NCC5CCOCC5)c([N+](=O)[O-])c4)c(Oc4cnc5[nH]ccc5c4)c3)CC2)=C(c2ccc(Cl)cc2)C1 + CC(C)NCC(C(=O)N1CCN(c2ncnc3c2C(C)CC3O)CC1)c1ccc(Cl)cc1",
    "QUALITATIVE LABEL": "active"
  },
  {
    "MOLECULE": "Cn1nccc1Nc1nccc(-c2ccn(C(CO)c3ccc(Cl)c(F)c3)c(=O)c2)n1 (configuration not stated) + CC(C)NCC(C(=O)N1CCN(c2ncnc3c2C(C)CC3O)CC1)c1ccc(Cl)cc1",
    "QUALITATIVE LABEL": "active"
  },
  {
    "MOLECULE": "Cn1ncc(Cl)c1-c1cc(C(=O)NC(CN)Cc2cccc(F)c2)sc1Cl (configuration not stated) + CC(C)NCC(C(=O)N1CCN(c2ncnc3c2C(C)CC3O)CC1)c1ccc(Cl)cc1",
    "QUALITATIVE LABEL": "active"
  },
  {
    "MOLECULE": "C=CC(=O)N1CCN(c2nc(=O)n(-c3c(C)ccnc3C(C)C)c3nc(-c4c(O)cccc4F)c(F)cc23)C(C)C1 (configuration not stated) + CC(C)NCC(C(=O)N1CCN(c2ncnc3c2C(C)CC3O)CC1)c1ccc(Cl)cc1",
    "QUALITATIVE LABEL": "inactive"
  }
]

Numbers sourced from PubChem BioAssay AID2060341.
